Reported MBC Staphylococcus epidermidis values are given for each entry in this list.
System: Staphylococcus epidermidis (PCM 2118)
Assay type: cell-based
Details: PCM 2118, 24 h
Where a SMILES comes first, the peptide text is derived from it. The star is where a group is joined. Palmitoyl = CCCCCCCCCCCCCCCC(=O)*; Octanoyl = CCCCCCCC(=O)*
API: value field is a number in mg/L; no unit string.

Reference set, count: 2
CCCCCCCCCCCCCCCC(=O)N[C@@H](CCCCN)C(=O)NCC(=O)N[C@@H](CCCCN)C(N)=O [C16-KGK-NH2] (Palmitoyl-Lys-Gly-Lys-NH2): 4
CCCCCCCC(=O)N[C@@H](CCCCN)C(=O)NCC(=O)N[C@@H](CCCCN)C(N)=O [C8-KGK-NH2] (Octanoyl-Lys-Gly-Lys-NH2): 1000

Endpoint output: MBC Staphylococcus epidermidis of CCCCCCCC(=O)N[C@@H](CCCCN)C(=O)N[C@@H](CCCCN)C(=O)N[C@@H](CCCCN)C(N)=O [C8-KKK-NH2] . Value?
512

Endpoint output: MBC Staphylococcus epidermidis of CCCCCCCCCCCCCCCC(=O)N[C@@H](CCCCN)C(=O)NCC(N)=O [C16-KG-NH2] (Palmitoyl-Lys-Gly-NH2) . Value?
4

Endpoint output: MBC Staphylococcus epidermidis of CCCCCCCCCCCCCCCC(=O)N[C@@H](CCCCN)C(=O)N[C@@H](CCCCN)C(N)=O [C16-KK-NH2] . Value?
4

Endpoint output: MBC Staphylococcus epidermidis of CCCCCCCCCCCCCCCC(=O)N[C@@H](CCCCN)C(=O)N[C@@H](CCCCN)C(=O)N[C@@H](CCCCN)C(=O)N[C@@H](CCCCN)C(N)=O [C16-KKKK-NH2] (Palmitoyl-KKKK-NH2) . Value?
4

----------
Tested on: Candida tropicalis (PCM 2681)
Assay type: cell-based
Conditions: PCM 2681, 48 h
Where a SMILES comes first, the peptide text is derived from it. The star is where a group is joined. Lauroyl = CCCCCCCCCCCC(=O)*; Decanoyl = CCCCCCCCCC(=O)*
ASSAY_ENDPOINT: MFC Candida tropicalis (µg/mL)
API: value field is a number in µg/mL; no unit string.

Reference set, count: 2
CCCCCCCCCC(=O)N[C@@H](CCCCN)C(=O)NCC(=O)N[C@@H](CCCCN)C(N)=O [C10-KGK-NH2] (Decanoyl-Lys-Gly-Lys-NH2): 1000
CCCCCCCCCCCC(=O)N[C@@H](CCCCN)C(=O)N[C@@H](CCCCN)C(=O)N[C@@H](CCCCN)C(=O)N[C@@H](CCCCN)C(N)=O [C12-KKKK-NH2] (Lauroyl-KKKK-NH2): 512

Now look at this entry.
Candida tropicalis (PCM 2681) / MFC Candida tropicalis / CCCCCCCCCCCC(=O)N[C@@H](CCCCN)C(=O)NCC(=O)N[C@@H](CCCCN)C(=O)NCC(N)=O [C12-KGKG-NH2] (Lauroyl-KGKG-NH2) : value?
2000

----------
Test system: Candida albicans (ATCC 10231)
Format: cell-based
Details: ATCC 10231, 48 h
Where a SMILES comes first, the peptide text is derived from it. The star is where a group is joined. Palmitoyl = CCCCCCCCCCCCCCCC(=O)*; Lauroyl = CCCCCCCCCCCC(=O)*; Octanoyl = CCCCCCCC(=O)*
Hi! Could you tag entries with MFC Candida albicans below 1000 µg/mL as True, and those at or above as False? Much appreciated.

Examples with answers:
CCCCCCCCCCCC(=O)N[C@@H](CCCCN)C(=O)N[C@@H](CCCCN)C(=O)N[C@@H](CCCCN)C(=O)N[C@@H](CCCCN)C(N)=O [C12-KKKK-NH2] (Lauroyl-KKKK-NH2): True
CCCCCCCC(=O)N[C@@H](CCCCN)C(=O)NCC(=O)N[C@@H](CCCCN)C(N)=O [C8-KGK-NH2] (Octanoyl-Lys-Gly-Lys-NH2): False
CCCCCCCCCCCCCCCC(=O)N[C@@H](CCCCN)C(=O)NCC(=O)N[C@@H](CCCCN)C(N)=O [C16-KGK-NH2] (Palmitoyl-Lys-Gly-Lys-NH2): True
CCCCCCCCCCCCCCCC(=O)N[C@@H](CCCCN)C(=O)NCC(=O)N[C@@H](CCCCN)C(=O)NCC(N)=O [C16-KGKG-NH2] (Palmitoyl-KGKG-NH2): True
CCCCCCCCCCCCCCCC(=O)N[C@@H](CCCCN)C(N)=O [C16-K-NH2]: True
CCCCCCCCCC(=O)N[C@@H](CCCCN)C(=O)N[C@@H](CCCCN)C(=O)N[C@@H](CCCCN)C(N)=O [C10-KKK-NH2]: False
CCCCCCCCCCCCCC(=O)N[C@@H](CCCCN)C(N)=O [C14-K-NH2]: True
CCCCCCCCCC(=O)N[C@@H](CCCCN)C(N)=O [C10-K-NH2]: False
CCCCCCCCCCCC(=O)N[C@@H](CCCCN)C(=O)N[C@@H](CCCCN)C(N)=O [C12-KK-NH2]: False
CCCCCCCCCCCC(=O)N[C@@H](CCCCN)C(=O)NCC(=O)N[C@@H](CCCCN)C(N)=O [C12-KGK-NH2] (Lauroyl-Lys-Gly-Lys-NH2): False

Bench note: check whether CCCCCCCCCCCCCC(=O)N[C@@H](CCCCN)C(=O)N[C@@H](CCCCN)C(N)=O [C14-KK-NH2] shows MFC Candida albicans below 1000 µg/mL
True

Bench note: check whether CCCCCCCCCCCCCCCC(=O)N[C@@H](CCCCN)C(=O)N[C@@H](CCCCN)C(=O)N[C@@H](CCCCN)C(=O)N[C@@H](CCCCN)C(N)=O [C16-KKKK-NH2] (Palmitoyl-KKKK-NH2) shows MFC Candida albicans below 1000 µg/mL
True

----------
System: Bacillus subtilis (ATCC 6633)
Type: cell-based
Settings: ATCC 6633; TFA salt; Mueller-Hinton broth, 10^5 cfu/mL, 18 h 37°C; triplicate
Where a SMILES comes first, the peptide text is derived from it. The star is where a group is joined. Octanoyl = CCCCCCCC(=O)*
ASSAY_ENDPOINT: MIC Bacillus subtillis

Endpoint output: MIC Bacillus subtillis of CCCCCCCC(=O)N[C@@H](CCCCN)C(=O)N[C@@H](CCCCN)C(=O)N[C@@H](CCCCN)C(=O)N[C@@H](CCCCN)C(N)=O [C8-KKKK-NH2] (Octanoyl-KKKK-NH2) . Value?
>2000 µg/mL

Endpoint output: MIC Bacillus subtillis of CCCCCCCC(=O)N[C@@H](CCCCN)C(=O)NCC(N)=O [C8-KG-NH2] (Octanoyl-Lys-Gly-NH2) . Value?
>2000 µg/mL

Endpoint output: MIC Bacillus subtillis of CCCCCCCC(=O)N[C@@H](CCCCN)C(=O)N[C@@H](CCCCN)C(N)=O . Value?
>1000 µg/mL

Endpoint output: MIC Bacillus subtillis of CCCCCCCC(=O)N[C@@H](CCCCN)C(N)=O . Value?
>1000 µg/mL

Endpoint output: MIC Bacillus subtillis of CCCCCCCC(=O)N[C@@H](CCCCN)C(=O)NCC(=O)N[C@@H](CCCCN)C(=O)NCC(N)=O [C8-KGKG-NH2] (Octanoyl-KGKG-NH2) . Value?
>2000 µg/mL

----------
Reported MIC Staphylococcus aureus values are given for each entry in this list.
System: Staphylococcus aureus (ATCC 25923)
Format: cell-based
Details: ATCC 25923; TFA salt; Mueller-Hinton broth, 10^5 cfu/mL, 18 h 37°C; triplicate on three days
Where a SMILES comes first, the peptide text is derived from it. The star is where a group is joined. Octanoyl = CCCCCCCC(=O)*

CCCCCCCC(=O)N[C@@H](CCCCN)C(=O)N[C@@H](CCCCN)C(=O)N[C@@H](CCCCN)C(N)=O: >2000 µg/mL

Endpoint output: MIC Staphylococcus aureus of CCCCCCCC(=O)N[C@@H](CCCCN)C(N)=O . Value?
>1000 µg/mL

Endpoint output: MIC Staphylococcus aureus of CCCCCCCC(=O)N[C@@H](CCCCN)C(=O)NCC(=O)N[C@@H](CCCCN)C(=O)NCC(N)=O [C8-KGKG-NH2] (Octanoyl-KGKG-NH2) . Value?
>2000 µg/mL

Endpoint output: MIC Staphylococcus aureus of CCCCCCCC(=O)N[C@@H](CCCCN)C(=O)N[C@@H](CCCCN)C(N)=O . Value?
>1000 µg/mL

----------
System: Escherichia coli (ATCC 25922)
Assay type: cell-based
Conditions: ATCC 25922, 18 h
Where a SMILES comes first, the peptide text is derived from it. The star is where a group is joined. Palmitoyl = CCCCCCCCCCCCCCCC(=O)*; Myristoyl = CCCCCCCCCCCCCC(=O)*; Lauroyl = CCCCCCCCCCCC(=O)*
ASSAY_ENDPOINT: MIC Escherichia coli (µg/mL)
API: value field is a number in µg/mL; no unit string.

Reference set, count: 6
CCCCCCCCCCCC(=O)N[C@@H](CCCCN)C(=O)N[C@@H](CCCCN)C(N)=O: 2000
CCCCCCCCCCCCCC(=O)N[C@@H](CCCCN)C(=O)N[C@@H](CCCCN)C(N)=O: 64
CCCCCCCCCC(=O)N[C@@H](CCCCN)C(N)=O: 1000
CCCCCCCCCCCC(=O)N[C@@H](CCCCN)C(=O)NCC(=O)N[C@@H](CCCCN)C(=O)NCC(N)=O [C12-KGKG-NH2] (Lauroyl-KGKG-NH2): 2000
CCCCCCCCCCCCCCCC(=O)N[C@@H](CCCCN)C(=O)N[C@@H](CCCCN)C(=O)N[C@@H](CCCCN)C(=O)N[C@@H](CCCCN)C(N)=O [C16-KKKK-NH2] (Palmitoyl-KKKK-NH2): 8
CCCCCCCCCCCCCCCC(=O)N[C@@H](CCCCN)C(=O)NCC(=O)N[C@@H](CCCCN)C(=O)NCC(N)=O [C16-KGKG-NH2] (Palmitoyl-KGKG-NH2): 16

Endpoint output: MIC Escherichia coli of CCCCCCCCCCCCCC(=O)N[C@@H](CCCCN)C(=O)N[C@@H](CCCCN)C(=O)N[C@@H](CCCCN)C(N)=O . Value?
128

Endpoint output: MIC Escherichia coli of CCCCCCCCCCCCCCCC(=O)N[C@@H](CCCCN)C(=O)NCC(=O)N[C@@H](CCCCN)C(N)=O [C16-KGK-NH2] (Palmitoyl-Lys-Gly-Lys-NH2) . Value?
8

Endpoint output: MIC Escherichia coli of CCCCCCCCCCCC(=O)N[C@@H](CCCCN)C(N)=O . Value?
256

Endpoint output: MIC Escherichia coli of CCCCCCCCCCCCCC(=O)N[C@@H](CCCCN)C(=O)NCC(N)=O [C14-KG-NH2] (Myristoyl-Lys-Gly-NH2) . Value?
64

Endpoint output: MIC Escherichia coli of CCCCCCCCCCCCCCCC(=O)N[C@@H](CCCCN)C(N)=O . Value?
512

Endpoint output: MIC Escherichia coli of CCCCCCCCCCCCCC(=O)N[C@@H](CCCCN)C(=O)NCC(=O)N[C@@H](CCCCN)C(=O)NCC(N)=O [C14-KGKG-NH2] (Myristoyl-KGKG-NH2) . Value?
128
